Target: Aurora kinase C (Homo sapiens)
Sequence (whole entry): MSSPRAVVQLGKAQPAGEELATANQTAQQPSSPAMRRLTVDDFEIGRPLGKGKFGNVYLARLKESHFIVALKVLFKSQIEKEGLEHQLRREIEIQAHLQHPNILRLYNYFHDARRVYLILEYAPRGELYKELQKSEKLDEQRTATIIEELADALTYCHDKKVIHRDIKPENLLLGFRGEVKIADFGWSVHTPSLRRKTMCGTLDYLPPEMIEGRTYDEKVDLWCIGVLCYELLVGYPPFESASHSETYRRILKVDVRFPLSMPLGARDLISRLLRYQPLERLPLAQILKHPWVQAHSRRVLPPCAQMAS
Details: at 10 µM
Reported residual activity values for a set of compounds
Number only, in %; omit the unit.

Use these answered entries as a reference point.
[[record]]
query_smiles = "Nc1ncnc2c1c(-c1ccc(Oc3ccccc3)cc1)cn2C1CCCC1"
reported = 54

[[record]]
query_smiles = "O=C1Nc2ccc(Cl)cc2/C1=C/c1cc(Cl)c(O)c(Cl)c1"
reported = 65

[[record]]
query_smiles = "O=C(Nc1ccc(Cl)cc1)c1ccccc1NCc1ccncc1"
reported = 70

[[record]]
query_smiles = "CCCCc1c(-c2ccc(O)cc2)[nH]c2nccnc12"
reported = 49


Input: Fill in residual activity for record "O=C1NC(=O)C(c2cn(CCCn3ccnc3)c3ccccc23)=C1Nc1ccccc1"
Output: 67

Input: Fill in residual activity for record "CCCC(=O)Oc1ccc2[nH]c(C(=O)c3cc4ccccc4[nH]3)cc2c1"
Output: 84

Input: Fill in residual activity for record "Nc1n[nH]c2nc3ccccc3nc12"
Output: 30

Input: Fill in residual activity for record "Nc1ncnc2c1cnn2-c1ccccc1"
Output: 53
